- Tested on: HCC PDX models 575, 658, and LI-011
- test_details: Clonogenic assay on patient-derived xenograft tumor cells
- Type: cell-based
- protocol_conditions: Homo sapiens, 336 h; 575, 658, LI-011; 14 days continuous exposure; P=0.023; read-out: IC50 values, all PDX models examined
metric: pIC50
API: returns pIC50 as number; meaning -log10 of concentration in mol/L.

Task: // returns reported pIC50 for input CNC(=O)c1cc(Oc2ccc(NC(=O)Nc3ccc(Cl)c(C(F)(F)F)c3)cc2)ccn1 [Sorafenib]
Result: 4.84
